Test system: COLO678
Assay: SRB cell growth assay, 72 h
Type: cell-based
Conditions: Homo sapiens, COLO-678, most sensitive cell lines
REPORTED_ENDPOINT: IC50

Need IC50, item O=C(NC[C@H](O)CO)c1ccncc1Nc1ccc(I)cc1F 4.8 to 8 nM

----------
Test system: SKMEL5
Assay: SRB cell growth assay, 72 h
Type: cell-based
Conditions: Homo sapiens, SK-MEL-5, most sensitive cell lines
pIC50: −log10 of the molar value.
REPORTED_ENDPOINT: pIC50

Dear colleague, I am looking for the recorded pIC50 of the following compound: O=C(NC[C@H](O)CO)c1ccncc1Nc1ccc(I)cc1F 8.10 to 8.32

----------
System: COLO205
Test: SRB cell growth assay, 72 h
Format: cell-based
Details: Homo sapiens, COLO 205, most sensitive cell lines
REPORTED_ENDPOINT: IC50

# query: IC50 of entry O=C(NC[C@H](O)CO)c1ccncc1Nc1ccc(I)cc1F [Compound (1)] 4.8 to 8 nM
